Values compiled from patent US20250050671A1.

- experimentalDetails: Measurement of solubility of electron-accepting compound to solvent (saturated solution, gravimetric)
- Assay type: physicochemical
- assayContext: saturated solution at 20° C.±3° C.; methanol
Mark true for reported Solubility, alcohol solvent methanol of 0.8 % by mass or greater; mark false for anything smaller.

Please check the record Cc1ccc(S(=O)(=O)Oc2cccc(NC(=O)Nc3cccc(OS(=O)(=O)c4ccc(C)cc4)c3)c2)cc1 [Electron-Accepting Compound 5] and state if its Solubility, alcohol solvent methanol is at or above 0.8 % by mass. false

Same for O=S(=O)(c1ccc(O)cc1)c1ccc(O)cc1 [Electron-Accepting Compound 6, 4,4′-sulfonylbisphenol, reference compound] true

Same for Oc1ccc(C2(c3ccc(O)cc3)c3ccccc3-c3ccccc32)cc1 [Electron-Accepting Compound 1, 9,9-Bis(4-hydroxyphenyl)fluorene] true

Same for Cc1ccc(S(=O)(=O)Oc2cccc(NC(=O)Nc3ccccc3)c2)cc1 [Electron-Accepting Compound 3] false

* * *

For each entry below, report its Electron-accepting compound Solubility to ethanol value.
- experimentalDetails: Measurement of solubility of electron-accepting compound to solvent (saturated solution, gravimetric)
- Assay type: physicochemical
- assayContext: Table 2, repeated per forming liquid; ethanol, 20° C.
Record the value in % by mass, omitting the unit from your answer.

Field request: Electron-accepting compound Solubility to ethanol | item: Cc1ccc(S(=O)(=O)Oc2cccc(NC(=O)Nc3ccccc3)c2)cc1 [Electron-Accepting Compound 3] 0.6

Same for Cc1ccc(S(=O)(=O)NC(=O)Nc2cccc(OS(=O)(=O)c3ccc(C)cc3)c2)cc1 [Electron-Accepting Compound 4] 0.4

Same for O=S(=O)(c1ccc(O)cc1)c1ccc(O)cc1 [Electron-Accepting Compound 6, 4,4′-sulfonylbisphenol, reference compound] 34.1

Same for Cc1ccc(S(=O)(=O)Oc2cccc(NC(=O)Nc3cccc(OS(=O)(=O)c4ccc(C)cc4)c3)c2)cc1 [Electron-Accepting Compound 5] 0.1

Same for Oc1ccc(C2(c3ccc(O)cc3)c3ccccc3-c3ccccc32)cc1 [Electron-Accepting Compound 1, 9,9-Bis(4-hydroxyphenyl)fluorene] 4.7

* * *

- experimentalDetails: Measurement of solubility of electron-accepting compound to solvent (saturated solution, gravimetric)
- Type: physicochemical
- assayContext: saturated solution at 20° C.±3° C.; ethyl acetate
- Description: <Measurement of Solubility of Electron-Accepting Compound to Solvent> […] (2) While stirring a stirrer or a stirring rod, an electron-accepting compound was added gradually until insoluble matter of the electron-accepting compound appears at the bottom of the beaker. […] (5) If the insoluble matter was remained after standing for 1 hour or longer, it was determined that preparation of a saturated solution was completed. […]
readout: Solubility, ester solvent ethyl acetate (% by mass)
Record the value in % by mass, omitting the unit from your answer.

Field request: Solubility, ester solvent ethyl acetate | item: O=S(=O)(c1ccc(O)cc1)c1ccc(O)cc1 [Electron-Accepting Compound 6, 4,4′-sulfonylbisphenol, reference compound] 9.7

Same for `Cc1ccc(S(=O)(=O)NC(=O)Nc2cccc(OS(=O)(=O)c3ccc(C)cc3)c2)cc1` 2.1

Same for Oc1ccc(C2(c3ccc(O)cc3)c3ccccc3-c3ccccc32)cc1 [Electron-Accepting Compound 1, 9,9-Bis(4-hydroxyphenyl)fluorene] 9.0

Same for `Cc1ccc(S(=O)(=O)Oc2cccc(NC(=O)Nc3cccc(OS(=O)(=O)c4ccc(C)cc4)c3)c2)cc1` 1.3

Same for `Cc1ccc(S(=O)(=O)Oc2cccc(NC(=O)Nc3ccccc3)c2)cc1` 1.6
